# system_name: T1, human FAPα on CHO-K1-hFAPα cells (human, UniProt Q12884 1-760)
# T1 construct: whole, on cells; also called cell-surface FAPα
# T1 sequence (looked up): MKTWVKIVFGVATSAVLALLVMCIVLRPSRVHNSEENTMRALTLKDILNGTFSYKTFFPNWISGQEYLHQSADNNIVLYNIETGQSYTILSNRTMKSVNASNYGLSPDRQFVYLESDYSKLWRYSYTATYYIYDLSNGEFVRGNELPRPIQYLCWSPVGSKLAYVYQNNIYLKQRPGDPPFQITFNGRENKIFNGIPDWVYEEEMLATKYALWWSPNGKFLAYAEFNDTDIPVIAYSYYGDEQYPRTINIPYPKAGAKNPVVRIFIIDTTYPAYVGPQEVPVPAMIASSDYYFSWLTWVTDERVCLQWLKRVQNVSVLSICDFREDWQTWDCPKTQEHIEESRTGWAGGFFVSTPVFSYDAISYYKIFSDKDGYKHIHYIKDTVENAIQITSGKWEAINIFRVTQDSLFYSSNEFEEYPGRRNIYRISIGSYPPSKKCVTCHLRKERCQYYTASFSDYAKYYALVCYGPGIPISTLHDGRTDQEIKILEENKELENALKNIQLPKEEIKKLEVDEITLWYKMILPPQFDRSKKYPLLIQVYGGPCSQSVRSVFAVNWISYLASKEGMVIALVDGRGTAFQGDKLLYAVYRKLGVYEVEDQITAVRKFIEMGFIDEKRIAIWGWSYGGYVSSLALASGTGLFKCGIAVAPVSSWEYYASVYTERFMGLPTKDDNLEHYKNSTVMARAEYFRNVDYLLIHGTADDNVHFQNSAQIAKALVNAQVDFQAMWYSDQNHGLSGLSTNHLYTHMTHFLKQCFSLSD
# assay_overview: flow cytometry on CHO-K1-hFAPα cells
# Method: To evaluate the cell-based binding property to human FAPα, the tested antibodies were analyzed for their binding to CHO-K1-hFAPα by FACS. A total number of 1×10⁵ CHO-K1-hFAPα cells in each well were incubated with 4-fold serial diluted antibodies starting from 3 μg/ml for 30 minutes at 4° C. in FACS buffer. After wash by FACS buffer, PE conjugated-anti-human IgG antibody was added to each well and incubated at 4° C. for 30 minutes. After wash, MFI of PE was evaluated by MACSQuant Analyzer 16.
measured_endpoint: EC50 (ng/mL)
Please reply with the bare figure in ng/mL and do not write the unit itself.

Consider the worked cases shown below.
I38 (antibody, V domains shown, Tested as a mAb; also called FAP-I38) VH: EVQLVQSGAEVKEPGVSVKVSCKASGYTFASYGLSWVRLAPGQGLQWMGWISPYTPNPIYAPNFRDKVILTTDRSTNTAYLEVRSLRSDDTGLYYCARNHWVGRPTRAFDLWGQGTMVTVSA VL: EIVLTQSPGTLSLSPGERATLSCRASQTVSITHLAWYQQKPGQAPRLLTYGASARATGIPDRFSVSGSGTDFTLTITRLEPEDFAVYYCQHYGSSITFGGGTKVEIK
0.026
J40 (antibody, V domains shown, Tested as a mAb; also called FAP-J40; FAP-J40-Bio (biotin-conjugated form)) VH: EVQLLESGGGLVQPGGSLRLSCAASGFTFSSYAMSWVRQAPGKGLEWVSAISGSGGSTYYADSVKGRFTISRDNSKNTLYLQMNSLRTDDTAVYYCARDLTTSTGWESWGQGTLVTVSA VL: NIQMTQSPSSVSASVGDRVTITCRASQGISSWLAWYQQKPGKAPKLLIYAASSLQSGVPSRFSGSGSGTDFTLTISSLQPEDFATYYCQQANSFPPTFGQGTKLEIK
0.025
G14 (antibody, V domains shown, Full human antibody from a Fab phage library; Tested as a mAb (detected with anti-human IgG, captured on Protein A); also called FAP-G14; FAP-G14-Bio (biotin-conjugated form)) VH: QVQLLESGGGVVQPGRSLRLSCAASGFTFSSYAMHWVRQAPGKGLEWVAFISHDGNRNSYADSVRGRFTISRDNSKNTLYLQMNSLRAEDTAVYYCARDLGYYNGFSYWGQGTLVTVSA VL: DIVMTQSPSSVSASVGDRVTITCRASQGISSWLAWYQQKPGKAPKLLIYAASSLQSGVPSRFSGSGSGTDFTLTISSLQPEDFATYYCQQANSFPPTFGPGTKVDIK
0.073

Measured EC50 of I37 (antibody, V domains shown, Tested as a mAb; also called FAP-I37) VH: QLQLVESGGGLVQPGGSLRLSCAASGFTFSSYAMSWVRQAPGKGLEWVSAISGSGGSTYYADSVKGRFTISRDNSKNTLYLQMNSLRAEDTAVYYCARDKPWGGSFDYWGQGTLVTVSA VL: DIQLTQSPSSLSASVGDRVTITCRASQGISSWLAWYQQKPGKAPKLLIYAASSLQSGVPSRFSGSGSGTDFTLTISSLQPEDFATYYCQQANSFPVTFGPGTKVDIK : 0.057
